Test system: NCI-H322M lung
Test: NCI-60 one-dose screen, 48 h
Conditions: 10 µM unless noted
Description: Growth inhibition of the NCI-H322M human Non-Small Cell Lung tumor cell line is measured as a screen for anti-cancer activity. Cells are grown in 96 well plates and exposed to the test compound for 48 hours. Compounds are tested at a single concentration, which is 10^-5 M for most compounds. The reported endpoint is percent growth (GI% or GIPRCNT), where numbers from 0 - 100% represent growth inhibition, and numbers from -100% - 0 represent cell death. […]
About 83,000 compounds went through this panel and 20% of them were active in at least one assay; those are over-represented in the sample as a whole. Active and inactive are the calls of the source. How the source made its calls: active means growth percent below 10; inactive means the rest.
Labels: Y (active), N (inactive)

compound: COc1cc(NC(C)CCCN)c2nc(C)ccc2c1OC (stereo not given)
targetEntity: NCI-H322M lung
label: N
--
compound: COCn1c(C(=O)OC)cc2oc(/C=C3/SC(=S)N(N)C3=O)cc21
targetEntity: NCI-H322M lung
label: N
--
compound: Oc1ccc(Br)cc1/C=N/NC(=S)NC12CC3CC(CC(C3)C1)C2
targetEntity: NCI-H322M lung
label: N
--
compound: FC(F)(F)c1cccc(-c2[nH]ncc2-c2nnnn2-c2ccccc2)c1
targetEntity: NCI-H322M lung
label: N
--
compound: COc1ccc(NC(=O)/C=C(C)/C=C/C=C(C)/C=C/C2=C(C)CCCC2(C)C)cc1
targetEntity: NCI-H322M lung
label: N
--
compound: COc1ccc(C(=O)NCCNc2nccc(-c3c(-c4ccc(F)cc4)nc4sccn34)n2)cc1
targetEntity: NCI-H322M lung
label: N
--
compound: O=C(N/N=C/c1cc(Cl)ccc1O)C(=O)N/N=C/c1cc(Cl)ccc1O
targetEntity: NCI-H322M lung
label: N
--
compound: Nc1ncn([C@@H]2O[C@H](CO)[C@@H](O)C2(F)F)c(=O)n1
targetEntity: NCI-H322M lung
label: N
--
compound: COc1ccc(Cn2cc3c(c2-c2ccc(O)cc2)CCc2cnoc2-3)cc1
targetEntity: NCI-H322M lung
label: N
--
compound: Cc1nc(NC(=O)NC2CCCCC2)sc1C(=O)NN
targetEntity: NCI-H322M lung
label: N
--
compound: COc1ccc(C2C3(C#N)C(N)=NC(=C(C#N)C#N)C23C#N)cc1OC (stereo not given)
targetEntity: NCI-H322M lung
label: N
--
compound: CCCC(=O)NNc1[nH]c(-c2ccc(OC)cc2)cc1C(=O)OCC
targetEntity: NCI-H322M lung
label: N
--
compound: COc1cc(OC)c(NC(=O)n2ncc3cc(Nc4ncnc5ccccc45)ccc32)cc1Cl
targetEntity: NCI-H322M lung
label: N
--
compound: COc1ccc(C2CC(=O)c3c(O)cc(OC4OC(COC5OC(C)C(O)C(O)C5O)C(O)C(O)C4O)cc3O2)cc1O (stereo not given)
targetEntity: NCI-H322M lung
label: N
--
compound: CC(=O)Oc1cc2ccccc2cc1C(C)C
targetEntity: NCI-H322M lung
label: N
--
compound: NCCCOc1cc(Cl)ccc1NC(=O)c1cc2ccccc2cc1OCCCN
targetEntity: NCI-H322M lung
label: Y
--
compound: C/C(=C\c1ccc2ccccc2c1)[N+](=O)[O-]
targetEntity: NCI-H322M lung
label: N
--
compound: Cc1cc2c(-c3nc4ccccc4[nH]3)c(O)c(O)cc2c(O)c1-c1c(C)cc2c(-c3nc4ccccc4[nH]3)c(O)c(O)cc2c1O
targetEntity: NCI-H322M lung
label: N
--
compound: O=C(Nc1ccc(-n2cc(-c3ccncc3)c(-c3ccc(Cl)c(O)c3)n2)cc1)c1ccc(Cl)c(Cl)c1
targetEntity: NCI-H322M lung
label: N
--
compound: Cc1ncc(C(=O)Nc2ccc(CN3CCN(C)CC3)c(C(F)(F)F)c2)cc1C#Cc1cnc(NC2CC2)c2ncccc12
targetEntity: NCI-H322M lung
label: Y

These measurements were taken from PubChem BioAssay (NCI).
